System: Vero
TEST_NAME: Cytotoxicity against african green monkey Vero cells after 6 days by Alamar blue assay
Assay type: cell-based
TEST_CONTEXT: Chlorocebus sabaeus, 144 h
pIC50: −log10 of the molar value.
Recorded pIC50, one value per entry.

{"COMPOUND": "NC(=O)c1cc(N2CC2)c([N+](=O)[O-])cc1[N+](=O)[O-] [TRETAZICAR]", "pIC50": "< 3.60"}
{"COMPOUND": "COC(=O)CCNC(=O)c1cc(N2CC2)c([N+](=O)[O-])cc1[N+](=O)[O-]", "pIC50": "< 3.60"}
{"COMPOUND": "CC1CS(=O)(=O)CCN1/N=C/c1ccc([N+](=O)[O-])o1 (centres undefined) [NIFURTIMOX]", "pIC50": 4.19}
{"COMPOUND": "O=C(NCCN1CCOCC1)c1cc(N2CC2)c([N+](=O)[O-])cc1[N+](=O)[O-]", "pIC50": "< 3.60"}
